B1: CPXM2 (parent)
chain: EILGCPLPDPNNYYHRRNEMTTTD

- Variants of: B1
- Assay explanation: protein stability index of a GFP-peptide fusion (GPS, HEK-293T) (PSI 1-6); higher = more stable;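 also: lentivirally expressed fusions sorted by FACS into six bins by GFP to DsRed ratio, PSI derived from sequencing read proportions per bin multiplied by bin number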
- Stated conditions: c terminus: a fixed tail appended
Measured property: protein stability index
One number for each entry.

Example entries begin here.
- Biosequence: "EILGCALPDPNNYYHRRNEMTTTD [P6A]"
  protein stability index: 3.16
- Biosequence: "EILGCPLPDPNCYYHRRNEMTTTD [N12C]"
  protein stability index: 3.44
- Biosequence: "EILGCPLPSPNNYYHRRNEMTTTD [D9S]"
  protein stability index: 3.24
- Biosequence: "EILGCYLPDPNNYYHRRNEMTTTD [P6Y]"
  protein stability index: 2.44
- Biosequence: "EILGCPLPDPNNYMHRRNEMTTTD [Y14M]"
  protein stability index: 3.57
- Biosequence: "EILGCPLPDPNNYHHRRNEMTTTD [Y14H]"
  protein stability index: 3.84
- Biosequence: "EITGCPLPDPNNYYHRRNEMTTTD [L3T]"
  protein stability index: 3.99
- Biosequence: "ECLGCPLPDPNNYYHRRNEMTTTD [I2C]"
  protein stability index: 3.98
- Biosequence: "EILGCPLPDPNNYWHRRNEMTTTD [Y14W]"
  protein stability index: 3.75
- Biosequence: "EILGCPLPDPNNYYHRRNEMTHTD [T22H]"
  protein stability index: 3.51

I would be grateful if you could provide protein stability index for each of the following entries.
1. EILGCPLPDPNNYYHPRNEMTTTD [R16P]
2. ELLGCPLPDPNNYYHRRNEMTTTD [I2L]
3. EELGCPLPDPNNYYHRRNEMTTTD [I2E]
4. EILGCPLPDPNNYYHRRNEMTTTG [D24G]
5. EILGCPLPDPNNPYHRRNEMTTTD [Y13P]
6. EILGCPLPDPNNYYHRHNEMTTTD [R17H]

1: 3.55; 2: 3.34; 3: 4.91; 4: 2.76; 5: 4.12; 6: 3.3

The reported measurements were obtained from the supplement of paper PMC10567573.
